# protocol: clinical
# measurement-parameters: in vivo, po, 120 mg
Where a name gives a salt, the structure may show the parent alone.
measure: Tmax

q: If you can, please state the reported Tmax value of COc1ccc([C@@H]2Sc3ccccc3N(CCN(C)C)C(=O)[C@@H]2OC(C)=O)cc1 [diltiazem hydrochloride] .
a: 1 to 2 h
